Hey, just so you know, these numbers are from ChEMBL document CHEMBL3997794.

pIC50: −log10 of the molar value.
// pIC50 collected for Histone deacetylase 1 (Homo sapiens, UniProt Q13547)

// worked examples, pIC50 included
[
  {
    "Smiles entry": "COC(=O)CCCCN1C(=O)[C@H]([C@@H](C)OCc2ccccc2)N=C(c2ccccc2)c2ccccc21",
    "pIC50": "< 4.52"
  },
  {
    "Smiles entry": "CC(C)(C)SC[C@H]1N=C(c2ccccc2)c2ccccc2N(CCCCC(=O)O)C1=O",
    "pIC50": "< 4.52"
  },
  {
    "Smiles entry": "O=C(O)C[C@@H]1N=C(c2ccccc2)c2ccccc2N(CCCCC(=O)NO)C1=O",
    "pIC50": "< 4.52"
  },
  {
    "Smiles entry": "CC(C)(C)OC(=O)n1c(C[C@@H]2N=C(c3ccccc3)c3ccccc3N(CCCCC(=O)O)C2=O)cc2ccccc21",
    "pIC50": "< 4.52"
  },
  {
    "Smiles entry": "O=C(O)CC[C@@H]1N=C(c2ccccc2)c2ccccc2NC1=O",
    "pIC50": "< 4.52"
  },
  {
    "Smiles entry": "O=C(CCCCN1C(=O)[C@H](CO)N=C(c2ccccc2)c2ccccc21)NO",
    "pIC50": "< 4.52"
  },
  {
    "Smiles entry": "O=C1Nc2ccccc2C(c2ccccc2)=N[C@H]1Cc1ccccc1",
    "pIC50": "< 4.52"
  },
  {
    "Smiles entry": "CC(C)(C)Oc1ccc(C[C@@H]2N=C(c3ccccc3)c3ccccc3NC2=O)cc1",
    "pIC50": "< 4.52"
  }
]

Test system Histone deacetylase 1 (Homo sapiens, UniProt Q13547); read-out pIC50; what value for `O=C(O)CCCCN1C(=O)[C@H](CC(=O)NC(c2ccccc2)(c2ccccc2)c2ccccc2)N=C(c2ccccc2)c2ccccc21` ?
< 4.52

Test system Histone deacetylase 1 (Homo sapiens, UniProt Q13547); read-out pIC50; what value for `O=C(CCCNC(=O)CC[C@@H]1N=C(c2ccccc2)c2ccccc2NC1=O)NO` ?
4.64

Test system Histone deacetylase 1 (Homo sapiens, UniProt Q13547); read-out pIC50; what value for `C[C@@H]1N=C(c2ccccc2)c2ccccc2N(CCCCC(=O)NO)C1=O` ?
4.90
